pKi: −log10 of the molar value.
Let's look at some pKi data for Prostaglandin E2 receptor EP2 subtype (Mus musculus, UniProt Q62053) that I collected from the literature.
observable: pKi

# compound, quantitative.result
rows = [
    ("CCCC1(C(O)C/C=C/[C@H]2[C@H](OC)CC(=O)[C@@H]2C/C=C\\CCCC(=O)O)CCC1 (some centres unmarked)", 7.47),
]

I. O=C(O)c1ccc(CC[C@H]2C(=O)C[C@@H](O)[C@@H]2/C=C/CC(O)C2(CC3CC3)CCC2)cc1 (single isomer, unassigned)
II. CCCCC[C@@H](/C=C/[C@@H]1[C@@H](C/C=C\CCCC(=O)O)[C@H](Cl)C[C@H]1OC)OC
III. CCCCc1ccc(C2CCC(=O)N2CCSc2nc(C(=O)O)cs2)cc1 (centres unmarked)
Task item: List these items ordered by pKi, big to small. Kindly provide the labels arranged according to the requested ordering.
Reply: I, III, II

---

pKi: −log10 of the molar value.
Let's look at some pKi data for Prostaglandin E2 receptor EP2 subtype (Mus musculus, UniProt Q62053) that I collected from the literature.
observable: pKi

# compound, pKi
records = [
    ("C=CCC1(C(O)C/C=C/[C@@H]2C(SCc3ccc(C(=O)O)cc3)C(=O)C[C@H]2O)CCC1 (stereo partly shown)", 7.72),
    ("CCC1([C@@H](O)C/C=C/[C@@H]2[C@@H](CCCCCCC(=O)O)[C@H](F)C[C@H]2O)CCC1", 7.18),
    ("CCCCC(C)(C)[C@@H](/C=C/[C@H]1[C@H](OC)CC(=O)[C@@H]1C/C=C\\CCCC(=O)O)OC", 6.28),
    ("O=C(O)c1ccc(CSC2C(=O)C[C@@H](O)[C@@H]2/C=C/CC(O)C2(CC3CC3)CCC2)cc1 (stereo partly shown)", 8.70),
    ("CCCC1(C(O)C/C=C/[C@H]2[C@H](O)CC(=O)[C@@H]2C/C=C\\CCCC(=O)O)CCC1 (stereo partly shown)", 7.04),
    ("C=CCC1(C(O)C/C=C/[C@@H]2[C@@H](C/C=C\\CCCC(=O)OC)[C@H](Cl)C[C@H]2O)CCC1 (stereo partly shown)", 7.02),
]

a. C=CCC1(C(O)C/C=C/[C@@H]2[C@@H](CCc3ccc(C(=O)O)cc3)[C@H](Cl)C[C@H]2O)CCC1 (stereo partly shown)
b. C=CC1(C(O)C/C=C/[C@H]2[C@H](O)CC(=O)[C@@H]2C/C=C\CCCC(=O)O)CCC1 (stereo partly shown)
Task item: Parameter check: reported pKi is higher for which label, a or b ? // output: label of the selected item
Reply: a
(a: 8.29, b: 7.12)
